Biological target: IgE-Tb / FcεRIα-Y131A-AF488 (Homo sapiens)
Sequence (P01854 1-427 limits assumed, stated change not applied): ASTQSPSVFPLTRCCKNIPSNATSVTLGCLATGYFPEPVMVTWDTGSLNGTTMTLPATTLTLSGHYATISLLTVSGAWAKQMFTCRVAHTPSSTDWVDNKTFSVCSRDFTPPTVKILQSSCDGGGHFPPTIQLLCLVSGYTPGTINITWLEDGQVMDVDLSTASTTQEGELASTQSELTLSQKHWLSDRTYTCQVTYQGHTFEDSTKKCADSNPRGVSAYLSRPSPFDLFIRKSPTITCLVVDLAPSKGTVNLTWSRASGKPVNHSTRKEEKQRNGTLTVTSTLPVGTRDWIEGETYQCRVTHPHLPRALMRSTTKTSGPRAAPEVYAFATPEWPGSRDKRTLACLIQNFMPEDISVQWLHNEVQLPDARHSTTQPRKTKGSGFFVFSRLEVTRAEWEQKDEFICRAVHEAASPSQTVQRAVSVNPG
Test: IgE-Tb / FcεRIα-Y131A-AF488 FRET assay (protocol for examples 1 to 233)
Type: binding
Conditions: examples 1 to 233: 5 nM IgE-Tb, 25 nM FcεRIα-Y131A-AF488, incubated 2 hours at room temperature; read-out: Y131A FRET IC50 range
pIC50: −log10 of the molar value.
PROPERTY NAME: pIC50

{"columns": ["MOLECULE", "pIC50"],
 "data": [
  ["Cc1cc(Nc2nncn2[C@H]2CCc3sc(NC(=O)C4CC4)c(C(=O)NCC4CC4)c3C2)n(C)n1 [Example 106]", "> 6.00"],
  ["CCOC(=O)c1ncn([C@H]2CCc3sc(NC(=O)C4CC4)c(C(=O)NCC4CC4)c3C2)c1N [Example 117]", "> 6.00"],
  ["CS(=O)(=O)NC1CCc2sc(NC(=O)C3CC3)c(C(=O)NCC3CC3)c2C1 (stereo not shown) [Example 207]", "> 6.00"],
  ["O=C(OCC1CC1)c1c(NC(=O)C2CC2)sc2c1CC(n1cnnc1Nc1cccnc1)CC2 (stereo not shown) [Example 94]", "> 6.00"],
  ["NC1CCc2sc(NC(=O)C3CC3)c(C(=O)NCC3CC3)c2C1 (stereo not shown) [Example 109]", "4.30 to 5.00"],
  ["O=C(NCC1CC1)c1c(NC(=O)C2CC2)sc2c1CN(CCc1ccccc1)CC2 [Example 11]", "4.30 to 5.00"],
  ["CC1CCc2sc(NC(=O)C3CC3)c(C(=O)NCC3CC3)c2C1 (stereo not shown) [Example 82]", "5.00 to 6.00"],
  ["N#CC1CCCc2c1sc(NC(=O)C1CC1)c2C(=O)NCC1CC1 (stereo not shown) [Example 65]", "5.00 to 6.00"],
  ["Nc1nccn1[C@H]1CCc2sc(NC(=O)C3CC3)c(C(=O)NCC3CC3)c2C1 [Example 186]", "> 6.00"],
  ["Cc1cc(N(C)c2nncn2[C@H]2CCc3sc(NC(=O)C4CC4)c(C(=O)NCC4CC4)c3C2)n(C)n1 [Example 214]", "5.00 to 6.00"]
]}

Could I get pIC50 for every one of these entries?
1. Cn1nc(C(F)(F)F)cc1Nc1nccn1[C@H]1CCc2sc(NC(=O)C3CC3)c(C(=O)NCC3CC3)c2C1 [Example 232]
2. O=C(NCC1CC1)c1c(NC(=O)C2CC2)sc2c1CC(c1nc3nccnc3[nH]1)CC2 (stereo not shown) [Example 46]
3. Cc1noc(C)c1Nc1nncn1[C@H]1CCc2sc(NC(=O)C3CC3)c(C(=O)NCC3CC3)c2C1 [Example 148]
4. CCNC1=NS(=O)(=O)N=C1NC1CCc2sc(NC(=O)C3CC3)c(C(=O)NCC3CC3)c2C1 (stereo not shown) [Example 134]
5. CCc1c(N[C@H]2CCc3sc(NC(=O)C4CC4)c(C(=O)NCC4CC4)c3C2)c(=O)c1=O (single isomer, unassigned) [Example 190]
6. Cc1cc(Nc2nncn2[C@H]2CCc3sc(NC(=O)C4CC4)c(C(=O)NCC(C)C)c3C2)n(C)n1 [Example 108]

Given back:
["> 6.00", "> 6.00", "> 6.00", "> 6.00", "> 6.00", "> 6.00"]
